Data origin: patent US20140357838A1

# study target: human insulin receptor (Homo sapiens, UniProt P06213)
# Sequence (P06213 28-746 isoform P06213-2 limits assumed): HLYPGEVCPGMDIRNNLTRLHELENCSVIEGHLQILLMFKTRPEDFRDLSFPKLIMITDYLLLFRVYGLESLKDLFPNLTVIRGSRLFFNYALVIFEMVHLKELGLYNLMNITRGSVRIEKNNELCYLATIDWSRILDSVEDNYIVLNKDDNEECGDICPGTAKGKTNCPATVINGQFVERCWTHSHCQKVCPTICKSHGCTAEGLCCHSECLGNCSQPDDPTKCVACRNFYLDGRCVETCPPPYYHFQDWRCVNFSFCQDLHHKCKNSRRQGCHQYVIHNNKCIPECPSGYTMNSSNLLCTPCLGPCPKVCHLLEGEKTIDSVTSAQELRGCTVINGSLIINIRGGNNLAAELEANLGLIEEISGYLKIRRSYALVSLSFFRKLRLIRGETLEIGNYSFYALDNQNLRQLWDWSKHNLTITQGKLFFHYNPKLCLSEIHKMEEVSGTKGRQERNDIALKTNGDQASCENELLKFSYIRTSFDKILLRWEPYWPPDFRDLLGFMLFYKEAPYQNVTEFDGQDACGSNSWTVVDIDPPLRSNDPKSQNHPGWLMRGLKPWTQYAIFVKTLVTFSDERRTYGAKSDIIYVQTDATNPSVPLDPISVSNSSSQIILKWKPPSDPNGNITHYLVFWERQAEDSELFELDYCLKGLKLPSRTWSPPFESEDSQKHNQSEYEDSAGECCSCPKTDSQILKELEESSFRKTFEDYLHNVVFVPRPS
# Sequence (P06213 763-1382 partner limits assumed): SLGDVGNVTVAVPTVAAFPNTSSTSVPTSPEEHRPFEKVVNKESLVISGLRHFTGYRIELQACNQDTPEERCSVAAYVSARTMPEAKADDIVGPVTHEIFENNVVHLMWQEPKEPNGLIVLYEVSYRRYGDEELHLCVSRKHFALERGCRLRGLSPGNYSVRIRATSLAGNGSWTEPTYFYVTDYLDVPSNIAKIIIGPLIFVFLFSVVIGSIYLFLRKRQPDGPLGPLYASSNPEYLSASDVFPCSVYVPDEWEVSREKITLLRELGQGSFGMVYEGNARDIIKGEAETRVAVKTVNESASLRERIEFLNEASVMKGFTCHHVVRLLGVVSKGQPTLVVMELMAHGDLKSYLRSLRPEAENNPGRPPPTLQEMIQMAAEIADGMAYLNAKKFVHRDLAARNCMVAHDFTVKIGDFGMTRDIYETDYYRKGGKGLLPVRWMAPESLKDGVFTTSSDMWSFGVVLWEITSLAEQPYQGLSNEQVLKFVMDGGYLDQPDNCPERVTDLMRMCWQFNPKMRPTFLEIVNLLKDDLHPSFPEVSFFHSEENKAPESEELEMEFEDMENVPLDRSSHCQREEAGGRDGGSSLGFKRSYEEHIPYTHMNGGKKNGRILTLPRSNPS
# procedure details: Insulin receptor affinity, SPA assay with […] HSA in binding buffer
# details: relative to the affinity of human insulin
Starred links: 1 amine or outer side, 2 acyl side, 3 side chain; linkers in the order of their positions; H or OH if unused. Positions of bridges follow the written chain, without caps; N, C: chain ends. Groups on a side chain read outwards from the residue. Chains are numbered I, II in the order given. No end group written: not given here. *: point of attachment. Phe(Nα-CONH2) = NC(=O)N[C@@H](Cc1ccccc1)C(=O)*; C20 diacid = O=C(O)CCCCCCCCCCCCCCCCCCC(=O)*; C18 diacid = O=C(O)CCCCCCCCCCCCCCCCC(=O)*; NMe2Phe = CN(C)[C@@H](Cc1ccccc1)C(=O)*; γGlu = O=C(O)[C@H](CCC(=O)[*:2])N[*:1]; Hydantoyl = NC(=O)NCC(=O)*; AEEA = NCCOCCOCC(=O)O; Me2Gly = CN(C)CC(=O)*
# Relative IR-A affinity (@ […] HSA) (%)e per entry
Write it as a number; the unit % goes unstated.

The substance I: NMe2Phe-VCQHLCGSHLVEALYLVCGERGFHYPK([AEEA-AEEA-γGlu-C18 diacid]) / II: Me2Gly-IVEQCCTSCCSLEQLENYCN (disulfide I:2-II:9, I:6-II:6, I:18-II:19, II:5-II:10) [Example 11] , when measured on human insulin receptor (Homo sapiens, UniProt P06213), yielded Relative IR-A affinity (@ […] HSA) (%)e of 0.04

The substance I: NMe2Phe-VCQHLCGSHLVEALHLVCGERGFHYTPK([AEEA-AEEA-γGlu-C20 diacid]) / II: Me2Gly-IVEQCCTSCCSLEQLENYCN (disulfide I:2-II:9, I:6-II:6, I:18-II:19, II:5-II:10) [Example 28] , when measured on human insulin receptor (Homo sapiens, UniProt P06213), yielded Relative IR-A affinity (@ […] HSA) (%)e of 0.01

The substance I: {Phe(Nα-CONH2)}-VCQHLCGSHLVEALYLVCGERGFHYPK([γGlu-C18 diacid]) / II: Hydantoyl-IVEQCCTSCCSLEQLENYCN (disulfide I:2-II:9, I:6-II:6, I:18-II:19, II:5-II:10) [Example 34] , when measured on human insulin receptor (Homo sapiens, UniProt P06213), yielded Relative IR-A affinity (@ […] HSA) (%)e of 0.00

The substance I: {Phe(Nα-CONH2)}-VCQHLCGSHLVEALYLVCGERGFHYPK([AEEA-AEEA-γGlu-C20 diacid]) / II: Hydantoyl-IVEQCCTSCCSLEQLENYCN (disulfide I:2-II:9, I:6-II:6, I:18-II:19, II:5-II:10) [Example 46] , when measured on human insulin receptor (Homo sapiens, UniProt P06213), yielded Relative IR-A affinity (@ […] HSA) (%)e of 0.01

The substance I: NMe2Phe-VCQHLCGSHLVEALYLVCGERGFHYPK([γGlu-C20 diacid]) / II: Me2Gly-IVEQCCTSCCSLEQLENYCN (disulfide I:2-II:9, I:6-II:6, I:18-II:19, II:5-II:10) [Example 18] , when measured on human insulin receptor (Homo sapiens, UniProt P06213), yielded Relative IR-A affinity (@ […] HSA) (%)e of 0.02

The substance I: {Phe(Nα-CONH2)}-VCQHLCGSHLVEALYLVCGERGFFYPK([γGlu-C18 diacid]) / II: Hydantoyl-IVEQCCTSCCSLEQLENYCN (disulfide I:2-II:9, I:6-II:6, I:18-II:19, II:5-II:10) [Example 36] , when measured on human insulin receptor (Homo sapiens, UniProt P06213), yielded Relative IR-A affinity (@ […] HSA) (%)e of 0.01

---

# study target: human insulin receptor (Homo sapiens, UniProt P06213)
# procedure details: Insulin receptor affinity, SPA antibody capture assay (0% HSA)
# Type: binding
# details: relative to the affinity of human insulin
Starred links: 1 amine or outer side, 2 acyl side, 3 side chain; linkers in the order of their positions; H or OH if unused. Positions of bridges follow the written chain, without caps; N, C: chain ends. Groups on a side chain read outwards from the residue. Chains are numbered I, II in the order given. No end group written: not given here. *: point of attachment. Phe(Nα-CONH2) = NC(=O)N[C@@H](Cc1ccccc1)C(=O)*; C20 diacid = O=C(O)CCCCCCCCCCCCCCCCCCC(=O)*; C18 diacid = O=C(O)CCCCCCCCCCCCCCCCC(=O)*; NMe2Phe = CN(C)[C@@H](Cc1ccccc1)C(=O)*; γGlu = O=C(O)[C@H](CCC(=O)[*:2])N[*:1]; Hydantoyl = NC(=O)NCC(=O)*; Me2Gly = CN(C)CC(=O)*
# Relative IR-A affinity (@ 0% HSA) (%) per entry
Show the value, then the unit it is measured in.

{"columns": ["substance", "Relative IR-A affinity (@ 0% HSA) (%)"],
 "data": [
  ["I: {Phe(Nα-CONH2)}-VCQHLCGSHLVEALYLVCGERGFFYPK([γGlu-C18 diacid]) / II: Hydantoyl-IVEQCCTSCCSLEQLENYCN (disulfide I:2-II:9, I:6-II:6, I:18-II:19, II:5-II:10) [Example 36]", "0.7%"]
]}

Please fill in: Relative IR-A affinity (@ 0% HSA) (%) reported for I: NMe2Phe-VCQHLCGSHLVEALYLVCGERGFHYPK([γGlu-C20 diacid]) / II: Me2Gly-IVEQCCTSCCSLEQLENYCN (disulfide I:2-II:9, I:6-II:6, I:18-II:19, II:5-II:10) [Example 18] = 0.72%

---

# procedure details: Hydrophobicity by isocratic reverse phase HPLC
# Assay type: physicochemical
# details: k'rel, isocratic RP-HPLC, pH 7.3, human insulin = 1
Starred links: 1 amine or outer side, 2 acyl side, 3 side chain; linkers in the order of their positions; H or OH if unused. Positions of bridges follow the written chain, without caps; N, C: chain ends. Groups on a side chain read outwards from the residue. Chains are numbered I, II in the order given. No end group written: not given here. *: point of attachment. Phe(Nα-CONH2) = NC(=O)N[C@@H](Cc1ccccc1)C(=O)*; C20 diacid = O=C(O)CCCCCCCCCCCCCCCCCCC(=O)*; C18 diacid = O=C(O)CCCCCCCCCCCCCCCCC(=O)*; NMe2Phe = CN(C)[C@@H](Cc1ccccc1)C(=O)*; γGlu = O=C(O)[C@H](CCC(=O)[*:2])N[*:1]; Hydantoyl = NC(=O)NCC(=O)*; AEEA = NCCOCCOCC(=O)O; Me2Gly = CN(C)CC(=O)*
readout type: Hydrophobicity rel. to human insulin

Some substances with recorded Hydrophobicity rel. to human insulin:
{"columns": ["substance", "Hydrophobicity rel. to human insulin"],
 "data": [
  ["I: NMe2Phe-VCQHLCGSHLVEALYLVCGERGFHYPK([γGlu-C20 diacid]) / II: Me2Gly-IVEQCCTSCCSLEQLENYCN (disulfide I:2-II:9, I:6-II:6, I:18-II:19, II:5-II:10) [Example 18]", 0.12],
  ["I: {Phe(Nα-CONH2)}-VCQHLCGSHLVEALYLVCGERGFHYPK([AEEA-AEEA-γGlu-C20 diacid]) / II: Hydantoyl-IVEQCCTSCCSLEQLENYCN (disulfide I:2-II:9, I:6-II:6, I:18-II:19, II:5-II:10) [Example 46]", 0.132]
]}

Please turn your attention to the following entry.
Please fill in: Hydrophobicity rel. to human insulin reported for I: NMe2Phe-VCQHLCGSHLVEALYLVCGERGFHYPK([AEEA-AEEA-γGlu-C18 diacid]) / II: Me2Gly-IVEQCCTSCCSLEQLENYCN (disulfide I:2-II:9, I:6-II:6, I:18-II:19, II:5-II:10) [Example 11] = 0.095

---

# study target: human insulin receptor (Homo sapiens, UniProt P06213)
# procedure details: Insulin receptor affinity, SPA antibody capture assay (0% HSA)
# Type: binding
# details: relative to the affinity of human insulin
Starred links: 1 amine or outer side, 2 acyl side, 3 side chain; linkers in the order of their positions; H or OH if unused. Positions of bridges follow the written chain, without caps; N, C: chain ends. Groups on a side chain read outwards from the residue. Chains are numbered I, II in the order given. No end group written: not given here. *: point of attachment. Phe(Nα-CONH2) = NC(=O)N[C@@H](Cc1ccccc1)C(=O)*; C18 diacid = O=C(O)CCCCCCCCCCCCCCCCC(=O)*; NMe2Phe = CN(C)[C@@H](Cc1ccccc1)C(=O)*; γGlu = O=C(O)[C@H](CCC(=O)[*:2])N[*:1]; Hydantoyl = NC(=O)NCC(=O)*; AEEA = NCCOCCOCC(=O)O; Me2Gly = CN(C)CC(=O)*
readout type: Relative IR-A affinity (@ 0% HSA) (%)
Write it as a number; the unit % goes unstated.

{"columns": ["substance", "unit symbol", "Relative IR-A affinity (@ 0% HSA) (%)"],
 "data": [
  ["I: {Phe(Nα-CONH2)}-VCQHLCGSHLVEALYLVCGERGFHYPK([γGlu-C18 diacid]) / II: Hydantoyl-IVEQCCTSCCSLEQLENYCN (disulfide I:2-II:9, I:6-II:6, I:18-II:19, II:5-II:10) [Example 34]", "%", 0.1]
]}

Please turn your attention to the following entry.
The substance I: NMe2Phe-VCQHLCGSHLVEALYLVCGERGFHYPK([AEEA-AEEA-γGlu-C18 diacid]) / II: Me2Gly-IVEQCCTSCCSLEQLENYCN (disulfide I:2-II:9, I:6-II:6, I:18-II:19, II:5-II:10) [Example 11] , when measured on human insulin receptor (Homo sapiens, UniProt P06213), yielded Relative IR-A affinity (@ 0% HSA) (%) of 0.6
